Below: a set of entries, each annotated with reported EC50.
- Tested System: hGIPR (Homo sapiens, UniProt P48546)
- Sequence (P48546 22-466): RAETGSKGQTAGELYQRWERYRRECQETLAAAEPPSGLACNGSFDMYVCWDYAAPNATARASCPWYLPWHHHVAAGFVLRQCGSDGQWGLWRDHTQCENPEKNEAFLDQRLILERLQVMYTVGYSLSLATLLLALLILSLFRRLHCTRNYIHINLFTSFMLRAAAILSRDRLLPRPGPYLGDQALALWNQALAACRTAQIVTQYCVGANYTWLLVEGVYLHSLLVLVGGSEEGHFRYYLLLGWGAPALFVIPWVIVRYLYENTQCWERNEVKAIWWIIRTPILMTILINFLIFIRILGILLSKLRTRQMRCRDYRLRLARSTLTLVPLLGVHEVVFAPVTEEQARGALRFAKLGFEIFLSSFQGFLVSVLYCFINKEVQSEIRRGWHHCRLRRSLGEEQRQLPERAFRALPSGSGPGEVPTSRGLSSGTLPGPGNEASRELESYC
- Protocol Description: Functional cAMP activity in the presence of 1% HSA
- Format: cell-based
- Measurement Setup: read-out: cAMP Rel EC50, hGIPR
Starred links: 1 amine or outer side, 2 acyl side, 3 side chain; linkers in the order of their positions; H or OH if unused. Non-standard residues stand in square brackets, D forms with d. Groups on a side chain read outwards from the residue. No end group written: not given here. *: point of attachment. C20 diacid = O=C(O)CCCCCCCCCCCCCCCCCCC(=O)*; C18 diacid = O=C(O)CCCCCCCCCCCCCCCCC(=O)*; αMePhe(2-F) = C[C@](N)(Cc1ccccc1F)C(=O)O; γGlu = O=C(O)[C@H](CCC(=O)[*:2])N[*:1]; NMeY = CN[C@@H](Cc1ccc(O)cc1)C(=O)O; αMe4Pal = C[C@](N)(Cc1ccncc1)C(=O)O; αMeY = C[C@](N)(Cc1ccc(O)cc1)C(=O)O; αMeF = C[C@](N)(Cc1ccccc1)C(=O)O; 4Pal = N[C@@H](Cc1ccncc1)C(=O)O; αMeL = CC(C)C[C@](C)(N)C(=O)O; αMeS = C[C@](N)(CO)C(=O)O; Orn = NCCC[C@H](N)C(=O)O; AEEA = NCCOCCOCC(=O)O; Aib = CC(C)(N)C(=O)O
Express your answer in nM, writing the number without its unit.

Worked examples, 6 substances total:
[[record]]
substance = "H-Y[Aib]QGTFTSDFSK[αMeL]LDKK([AEEA-γGlu-C20 diacid])AQ[Aib]AFIEYLLEGGPSSGAPPP[γGlu]GE-NH2 [Example 53]"
reading_unit = "nM"
numeric_result = 113

[[record]]
substance = "H-Y[Aib]QGTFTSDFSK[αMeL]LDKK([AEEA-AEEA-γGlu-C18 diacid])AQ[Aib]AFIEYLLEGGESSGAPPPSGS-NH2 [Example 147]"
reading_unit = "nM"
numeric_result = 108

[[record]]
substance = "H-Y[Aib]QGT[αMePhe(2-F)]TSD[4Pal][αMeS]I[αMeL]LD[Orn]K([AEEA-γGlu-C18 diacid])AQ[αMe4Pal]EFI[dE][αMeY]LVEGGPSSGEPPPSGS-NH2 [Example 733]"
reading_unit = "nM"
numeric_result = 1.15

[[record]]
substance = "Y[Aib]QGT[αMePhe(2-F)]TSD[4Pal][αMeS]I[αMeL]LD[Orn]K([AEEA-γGlu-C18 diacid])AA[Aib]EFI[dE][αMeY]LIEGGPSSGAPPPSGE-NH2 [Example 701]"
reading_unit = "nM"
numeric_result = 0.979

[[record]]
substance = "H-Y[Aib]QGTFTSD[4Pal]SQ[αMeL]LD[Orn]K([γGlu-γGlu-C18 diacid])AQ[Aib]AFIE[αMeY]LLEGGPSSGAPPPSGSEE-NH2 [Example 946]"
reading_unit = "nM"
numeric_result = 57.4

[[record]]
substance = "H-[NMeY][Aib]QGT[αMeF]TSDYSILLDKIAAK([AEEA-AEEA-γGlu-C20 diacid])AFVQWLIAGGPSSGEPPPSEG-NH2 [Example 300]"
reading_unit = "nM"
numeric_result = 12.9


Q) Bench note: what EC50 did H-Y[Aib]QGTFTSD[4Pal]SQ[αMeL]LD[Orn]K([γGlu-γGlu-C18 diacid])AQ[αMe4Pal]AFIEYLIE[Aib]GPSSGAPPPSGSEE-NH2 [Example 937] show?
A) 19.7

Q) What would you report for H-Y[Aib]QGT[αMePhe(2-F)]TSD[4Pal][αMeS]I[αMeL]LD[Orn]K([AEEA-AEEA-γGlu-C18 diacid])AQ[Aib][Orn]FI[dE][αMeY]LIEGGPSSGEPPPSEG-NH2 [Example 490] ?
A) 0.861

Q) What would you report for Y[Aib]QGT[αMePhe(2-F)]TSD[4Pal][αMeS]I[αMeL]LD[Orn]K([AEEA-γGlu-C18 diacid])YQ[αMe4Pal]EFI[dE][αMeY]LVEGGPSSGAPPPSGS-NH2 [Example 767] ?
A) 1.51
